# System: T1, HLA-A*0201 (human)
# T1 construct: MHC monomer first loaded with a UV-sensitive peptide that is cleaved and exchanged for the test peptide; captured on streptavidin; also called peptide-receptive MHC molecules
# Test Details: UV-ligand exchange, streptavidin/anti-b2m sandwich ELISA
Recorded Endpoint: Average exchange yield in % (%)

KLLTEVHAA (synthetic peptide from ADAM8) [ADAM8-001]    67
SLLESNKDLLL (synthetic peptide from SLC3A2) [SLC3A2-001]    56
SLLAQNTSWLL (synthetic peptide from THY1) [THY1-001]    65
ALLRTVVSV (synthetic peptide from GALNT2) [GALNT2-001]    73
GLYPDAFAPV (synthetic peptide from ELANE) [ELANE-001]    62
